- Test system: OVCAR-4
- measurement-description: Growth inhibition of human OVCAR4 cells at 10 uM after 48 hrs by SRB assay relative to control
- Format: functional
- study-conditions: OVCAR-4, 48 h, read-out: GI
assay-readout: inhibition of growth at 10 µM

The measured inhibition of growth at 10 µM that COc1ccc(NC(=O)c2cccc(-c3cc(=O)c4c(O)c(OC)c(OC)cc4o3)c2)cc1 showed for OVCAR-4 is 2.54%

Sample COc1ccc(C(=O)Nc2cccc(-c3cc(=O)c4c(OC)c(OC)c(OC)cc4o3)c2)cc1 , system: OVCAR-4. Its inhibition of growth at 10 µM is 38%

Field inhibition of growth at 10 µM (system: OVCAR-4) for entry Cc1ccc(NC(=O)c2ccc(CN3CCN(C)CC3)cc2)cc1Nc1nccc(-c2cccnc2)n1 [IMATINIB] = -0.1%

# COc1cc(NC(=O)c2cccc(-c3cc(=O)c4c(O)c(OC)c(OC)cc4o3)c2)cc(OC)c1OC with OVCAR-4: inhibition of growth at 10 µM is 41.4%

Form: item COc1ccc(C(=O)Nc2cccc(-c3cc(=O)c4c(O)c(OC)c(OC)cc4o3)c2)cc1 ; test system OVCAR-4; inhibition of growth at 10 µM: 4.66%

Assay OVCAR-4, sample COc1cc2oc(-c3cccc(NC(=O)c4ccc5c(c4)OCO5)c3)cc(=O)c2c(O)c1OC , inhibition of growth at 10 µM read: 25.8%

Record COc1cccc(NC(=O)c2cccc(-c3cc(=O)c4c(O)c(OC)c(OC)cc4o3)c2)c1 has OVCAR-4 inhibition of growth at 10 µM equal to 48%

Known value: OVCAR-4 inhibition of growth at 10 µM of the molecule COc1cccc(NC(=O)c2cccc(-c3cc(=O)c4c(OC)c(OC)c(OC)cc4o3)c2)c1 equals 37.4%

inhibition of growth at 10 µM of COc1cccc(C(=O)Nc2cccc(-c3cc(=O)c4c(OC)c(OC)c(OC)cc4o3)c2)c1 , assay on OVCAR-4, is 37.7%
